Experiment: Selectivity index, ratio of IC50 for rat L6 cells to IC50 for Trypanosoma cruzi Tulahuen strain C2C4 amastigote forms harboring LacZ infected in rat L6 cells
Type: toxicity, cell-based
Settings: read-out: Ratio IC50
readout.kind: selectivity ratio
One number for each entry.

compound: CNc1nc(F)nc2c1ncn2[C@@H]1O[C@H](C)[C@@H](O)[C@H]1O
selectivity ratio: 12

compound: CNc1nc(N)nc2c1ncn2[C@@H]1O[C@H](C)[C@@H](O)[C@H]1O
selectivity ratio: 14

compound: CSC[C@H]1O[C@@H](n2cnc3c(N)nc(F)nc32)[C@H](O)[C@@H]1O
selectivity ratio: 0.2

compound: CNc1nc(N)nc2c1ncn2[C@@H]1O[C@H](CSC)[C@@H](O)[C@H]1O
selectivity ratio: 8

We next turn to a different compound, shown below.
Ask: Which selectivity ratio is reported for this compound? CC(=O)O[C@@H]1[C@H](OC(C)=O)[C@@H](C[S+](C)[O-])O[C@H]1n1cnc2c(N)nc(Cl)nc21 (stereo not given in full)
Reply: 2

----------
Assay: Selectivity index, ratio of IC50 for rat L6 cells to IC50 for Leishmania donovani MHOM/SD/62/ISCL2D axenic amastigotes
Assay type: toxicity
Settings: read-out: Ratio IC50
readout.kind: selectivity ratio
Numbers only.

Example results:
compound: C[S+]([O-])C[C@H]1O[C@@H](n2cnc3c(N)nc(F)nc32)[C@H](O)[C@@H]1O (some centres undefined)
selectivity ratio: 0.4

compound: C[C@H]1O[C@@H](n2cnc3c(N)nc(N=[N+]=[N-])nc32)[C@H](O)[C@@H]1O
selectivity ratio: 2

We next turn to a different compound, shown below.
Ask: Which selectivity ratio is reported for this compound? C[C@H]1O[C@@H](n2cnc3c(N)nc(Cl)nc32)[C@H](O)[C@@H]1O
Reply: 3

----------
Test: Selectivity index, ratio of IC50 for rat L6 cells to IC50 for bloodstream forms of Trypanosoma brucei rhodesiense STIB900 trypomastigotes
Assay type: toxicity
Details: read-out: Ratio IC50
Please use y whenever selectivity ratio is not below 3, and n whenever it is.

Look over these answered cases.
chem.smiles: C[C@H]1O[C@@H](n2cnc3c(N)nc(I)nc32)[C@H](O)[C@@H]1O
label: y
//
chem.smiles: CSC[C@H]1O[C@@H](n2cnc3c(N)nc(F)nc32)[C@H](O)[C@@H]1O
label: n
//
chem.smiles: CC(=O)NC[C@H]1O[C@@H](n2cnc3c(N)nc(F)nc32)[C@H](OC(C)=O)[C@@H]1OC(C)=O
label: n

Now consider the entry below.
Ask: Threshold query (selectivity ratio >= 3) on COc1nc(I)nc2c1ncn2[C@@H]1O[C@H](C)[C@@H](O)[C@H]1O
Reply: n

----------
System: L6
Test: Cytotoxicity against rat L6 cells assessed as growth inhibition after 72 hrs by alamar blue assay
Type: cell-based
Details: L6, 72 h
readout.kind: pIC50
Answers are plain numbers, as −log10 of the molar value.

Example results:
compound: Nc1nc2c(ccn2[C@@H]2O[C@H](CO)[C@@H](O)[C@H]2O)c(=S)[nH]1
pIC50: 3.73
//
compound: CC(=O)NC[C@H]1O[C@@H](n2cnc3c(N)nc(F)nc32)[C@H](OC(C)=O)[C@@H]1OC(C)=O
pIC50: 3.86
//
compound: Nc1nc([Se][Se]c2nc(N)nc3c2ccn3[C@@H]2O[C@H](CO)[C@@H](O)[C@H]2O)c2ccn([C@@H]3O[C@H](CO)[C@@H](O)[C@H]3O)c2n1
pIC50: 4.62
//
compound: CNc1nc(N)nc2c1ncn2[C@@H]1O[C@H](CSC)[C@@H](O)[C@H]1O
pIC50: 3.78
//
compound: COc1nc(I)nc2c1ncn2[C@@H]1O[C@H](C)[C@@H](O)[C@H]1O
pIC50: 3.80

// for each compound in input: emit pIC50
1. Nc1nc(Cl)c2ccn([C@@H]3O[C@H](CO)[C@@H](O)[C@H]3O)c2n1
2. [N-]=[N+]=NC[C@H]1O[C@@H](n2cnc3c(N)nc(F)nc32)[C@H](O)[C@@H]1O
3. CC(=O)NC[C@H]1O[C@@H](n2cnc3c(N)nc(Cl)nc32)[C@H](OC(C)=O)[C@@H]1OC(C)=O
4. CSC[C@H]1O[C@@H](n2cnc3c(N)nc(Cl)nc32)[C@H](OC(C)=O)[C@@H]1OC(C)=O
5. CC(=O)NC[C@H]1O[C@@H](n2cnc3c(N)nc(F)nc32)[C@H](O)[C@@H]1O
6. CC(=O)O[C@@H]1[C@H](OC(C)=O)[C@@H](CN2C(=O)c3ccccc3C2=O)O[C@H]1n1cnc2c(N)nc(Cl)nc21

Reply:
1: 3.79; 2: 5.51; 3: 3.72; 4: 3.67; 5: 3.74; 6: 3.84

// for each compound in input: emit pIC50
1. CNc1nc(Cl)c2ncn([C@@H]3O[C@H](C)[C@@H](O)[C@H]3O)c2n1
2. CC(=O)O[C@@H]1[C@H](OC(C)=O)[C@@H](CI)O[C@H]1n1cnc2c(N)nc(Cl)nc21
3. CC(=O)O[C@@H]1[C@H](OC(C)=O)[C@@H](CN2C(=O)c3ccccc3C2=O)O[C@H]1n1cnc2c(N)nc(F)nc21

Reply:
1: 3.76; 2: 4.07; 3: 3.89

// for each compound in input: emit pIC50
1. CC(=O)O[C@@H]1[C@H](OC(C)=O)[C@@H](CS(C)(=O)=O)O[C@H]1n1cnc2c(N)nc(Cl)nc21
2. CC(=O)O[C@@H]1[C@H](OC(C)=O)[C@@H](CN=[N+]=[N-])O[C@H]1n1cnc2c(N)nc(F)nc21
3. C[S+]([O-])C[C@H]1O[C@@H](n2cnc3c(N)nc(F)nc32)[C@H](O)[C@@H]1O (stereo partly drawn)
4. [N-]=[N+]=NC[C@H]1O[C@@H](n2cnc3c(N)nc(Cl)nc32)[C@H](O)[C@@H]1O

Reply:
[3.94, 4.74, 4.89, 3.81]

// for each compound in input: emit pIC50
1. C[S+]([O-])C[C@H]1O[C@@H](n2cnc3c(N)nc(Cl)nc32)[C@H](O)[C@@H]1O (stereo partly drawn)
2. CC(=O)O[C@@H]1[C@H](OC(C)=O)[C@@H](CN=[N+]=[N-])O[C@H]1n1cnc2c(N)nc(Cl)nc21
3. CNc1nc(N)nc2c1ncn2[C@@H]1O[C@H](C)[C@@H](O)[C@H]1O
4. CS(=O)(=O)C[C@H]1O[C@@H](n2cnc3c(N)nc(F)nc32)[C@H](O)[C@@H]1O

Reply:
1. 3.59
2. 3.85
3. 3.68
4. 5.30
